Recorded IC50, one value per entry.
Biological target: ALK5 (Homo sapiens)
Construct: endogenous in cells
Sequence (P36897 34-503): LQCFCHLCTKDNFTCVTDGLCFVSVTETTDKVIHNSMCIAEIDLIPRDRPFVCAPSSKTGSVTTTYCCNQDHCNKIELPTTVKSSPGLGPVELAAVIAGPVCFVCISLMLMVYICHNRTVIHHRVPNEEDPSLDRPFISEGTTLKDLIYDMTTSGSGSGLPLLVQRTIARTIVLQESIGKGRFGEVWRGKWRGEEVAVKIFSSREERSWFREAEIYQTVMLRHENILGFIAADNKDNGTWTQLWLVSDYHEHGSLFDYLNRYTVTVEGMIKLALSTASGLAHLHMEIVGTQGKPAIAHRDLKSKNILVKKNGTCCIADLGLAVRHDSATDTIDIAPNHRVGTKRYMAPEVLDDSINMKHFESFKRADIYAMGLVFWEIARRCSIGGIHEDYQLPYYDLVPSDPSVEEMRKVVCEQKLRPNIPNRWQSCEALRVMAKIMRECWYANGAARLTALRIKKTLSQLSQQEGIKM
Experiment: Cell-based luciferase reporter assay for ALK5 activity
Settings: (CAGA)-12-luciferase reporter, Smad 2/3-responsive promoter, 2 ng/ml TGF-β1 stimulation for 12 hours; read-out: Relative luciferase activity: IC50 value

Challenge: I would be grateful if you could share the reported IC50 for `Cc1cccc(-c2[nH]c(NCc3c(F)cccc3F)nc2-c2ccn3ncnc3c2)n1` .
Response given: 10 to 100 nM

Challenge: I would be grateful if you could share the reported IC50 for `Cc1cccc(-c2[nH]c(NCc3ccc(Cl)cc3F)nc2-c2ccn3nccc3c2)n1` .
Response given: < 10 nM

Challenge: I would be grateful if you could share the reported IC50 for `Cc1cccc(-c2[nH]c(NCc3cccc(Cl)c3)nc2-c2ccn3ncnc3c2)n1` .
Response given: 10 to 100 nM

Challenge: I would be grateful if you could share the reported IC50 for `Cc1cccc(-c2[nH]c(NCc3ccc(Cl)c(Cl)c3)nc2-c2ccn3nccc3c2)n1` .
Response given: 10 to 100 nM

Challenge: I would be grateful if you could share the reported IC50 for `COc1ccc(CNc2nc(-c3ccn4ncnc4c3)c(-c3cccc(C)n3)[nH]2)c(F)c1` .
Response given: 10 to 100 nM

Challenge: I would be grateful if you could share the reported IC50 for `Cc1cccc(-c2[nH]c(NCc3cccc(F)c3)nc2-c2ccn3nccc3c2)n1` .
Response given: 10 to 100 nM
